# experimental-system: protein-protein interaction between Kras and SOS1 (biotin-tagged human Kras loaded with GDP, His-tagged human SOS1) (Homo sapiens (Human), UniProt P01116, G12D)
# assay-name: Protein-protein interaction inhibition between Kras and SOS1 (KrasG12D-SOS PPI) using AlphaScreen;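 also: kras produced in E. coli, Ni-coupled donor beads and streptavidin acceptor beads, excitation 680 nm with emission detected at 520–620 nm via singlet oxygen transfer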
# Format: biochemical
# experimental-setup: AlphaScreen; biotin-tagged human Kras loaded with GDP, His-tagged human SOS1; read-out: KRAS G12D-SOS PPI IC50
Numbered stars: 1 amine (or outer) side, 2 acyl side, 3 side chain; on linkers, the order of the positions; unused ones are H or OH. Bridge positions count the residues as written; N and C are the ends. Square brackets hold non-standard residues; d marks the D form. Peptide text beside a SMILES is read from it. * marks the point of attachment. hPhe(3-Cl-4-CF3) = N[C@@H](CCc1ccc(C(F)(F)F)c(Cl)c1)C(=O)O; NMedβ3hAla = C[C@H](CC(=O)[*:2])N(C)[*:1]; NMeGly(cPent) = CN[C@H](C(=O)O)C1CCCC1; Pro(4,4-F2) = O=C(O)[C@@H]1CC(F)(F)CN1; NMeCha = CN[C@@H](CC1CCCCC1)C(=O)O; NMeChg = CN[C@H](C(=O)O)C1CCCCC1; NMeD = CN[C@@H](CC(=O)O)C(=O)O; NMeL = CN[C@@H](CC(C)C)C(=O)O; Azetidin(1-yl) = C1CN(*)C1; NMeA = CN[C@@H](C)C(=O)O; NMeAib = CNC(C)(C)C(=O)O; Ac5c = NC1(C(=O)O)CCCC1; Aze = O=C(O)[C@@H]1CCN1; Sar = CNCC(=O)O
reported-metric: IC50 (nM)
Numbers only, in nM.

CC[C@H](C)[C@@H]1NC(=O)[C@H](CC(C)C)N(C)C(=O)C[C@@H](C(=O)N2CCC2)N(C)C(=O)[C@H](C2CCCC2)N(C)C(=O)C2(CCCC2)NC(=O)[C@@H]2CC(F)(F)CN2C(=O)[C@H](CCc2ccc(C(F)(F)F)c(Cl)c2)NC(=O)CN(C)C(=O)[C@H](CC2CCCCC2)N(C)C(=O)[C@@H]2CCN2C(=O)[C@H](C)N(C)C1=O [Compound 1283] ([NMeL]I[NMeA][Aze][NMeCha][Sar][hPhe(3-Cl-4-CF3)][Pro(4,4-F2)][Ac5c][NMeGly(cPent)][NMeD]-{Azetidin(1-yl)}; lactam N-11)    0.63

Now, please, on to the next molecule.
Consider the molecule shown here: CC[C@H](C)[C@@H]1NC(=O)[C@H](C)N(C)C(=O)C[C@@H](C)N(C)C(=O)[C@H](C2CCCCC2)N(C)C(=O)C(C)(C)N(C)C(=O)[C@@H]2CCCN2C(=O)[C@H](CCc2ccc(C(F)(F)F)c(Cl)c2)NC(=O)CN(C)C(=O)[C@H](CC2CCCCC2)N(C)C(=O)[C@@H]2CCN2C(=O)[C@H](C)N(C)C1=O [Compound 2155] (cyclo([Aze][NMeCha][Sar][hPhe(3-Cl-4-CF3)]P[NMeAib][NMeChg][NMedβ3hAla][NMeA]I[NMeA])) What is its recorded IC50?
28
